# credit: the supplement of paper PMC7125110

B1: glmS ribozyme (parent)
chain: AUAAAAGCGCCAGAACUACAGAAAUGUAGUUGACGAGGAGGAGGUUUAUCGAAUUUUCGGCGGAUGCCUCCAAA

# Variants of: B1
# Experimental Details: kcat; higher = faster cleavage; RNA array
# Test Context: with glucosamine-6-phosphate
This sample holds only a part of the variants without activity.
Recorded kcat split into classes low (below 0.0001 s⁻¹), middle (0.0001 s⁻¹ to below 0.0007 s⁻¹), high (0.0007 s⁻¹ or more)

Request: Form field 'band' for AUAAAAGCGCCAGAACUACAGAAAUGUAGUUGACGAGGAGGAGGUUUAUCGAAUUGGCGGCGGAUGCCUCCAAA [U56G U57G]
Response: low

Request: Record AUAAAAGCGCCAGAACUACAGAAAUGUAGUUGACGAGGAGGAGGUUUAUCGAAAUGUCGGCGGAUGCCUCCAAA [U54A U56G] — which class?
Response: high

Request: Could you place AUAAAAGCGCCAGAACUACAGAAAUGUAGUUGACGAGGCGGCGGUUUAUCGAAUUUUCGGCGGAUGCCUCCAAA [A39C A42C] in its proper category? Many thanks.
Response: low

Request: Kindly identify the class of AUAAAAGCGCCAGAACUACAGAAAUGUAGUUGACGAGGAGGAGGUUUAUCGAUUUUUCGGCGGAUACCUCCAAA [A53U G66A] .
Response: high

Request: GET /class?item= AUAAAAGCGCCAGAACUACAGAAAUGUAGUUGACGAGGAGGAGGUUCAUCGGAUUUUCGGCGGAUGCCUCCAAA [U47C A52G]
Response: middle
